All values here come from ChEMBL document CHEMBL4680278.

# TESTED ON: Cytochrome P450 1A2 (Homo sapiens, UniProt P05177)
# Sequence (P05177 whole entry): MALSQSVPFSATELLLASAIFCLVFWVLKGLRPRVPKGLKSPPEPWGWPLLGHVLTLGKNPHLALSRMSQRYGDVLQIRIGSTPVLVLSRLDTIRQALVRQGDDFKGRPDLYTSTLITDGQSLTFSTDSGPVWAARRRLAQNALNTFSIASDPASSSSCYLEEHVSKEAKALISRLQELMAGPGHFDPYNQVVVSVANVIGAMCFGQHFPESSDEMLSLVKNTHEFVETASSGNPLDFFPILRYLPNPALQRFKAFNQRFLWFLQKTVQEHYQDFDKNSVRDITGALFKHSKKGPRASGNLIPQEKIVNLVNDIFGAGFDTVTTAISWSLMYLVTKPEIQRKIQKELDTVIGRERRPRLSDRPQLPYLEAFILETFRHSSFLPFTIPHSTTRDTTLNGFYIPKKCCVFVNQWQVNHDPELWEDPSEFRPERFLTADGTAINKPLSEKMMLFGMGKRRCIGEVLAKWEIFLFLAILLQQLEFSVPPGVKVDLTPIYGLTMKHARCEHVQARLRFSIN
# EXPERIMENTAL PROTOCOL: Competitive inhibition of human recombinant CYP1A2 using 7-Ethoxyresorufin as substrate by Lineweaver-Burk plot analysis
# TEST SETTINGS: read-out: Ki(app)
QUANTITY MEASURED: Ki (nM)
Entry rule: numbers only, all in nM.

Look at this compound and give its reported Ki. C=C(C)[C@@H]1CCC(C)=C[C@H]1c1c(O)cc(CCCCC)cc1O [CANNABIDIOL]
2690
